system: K4 kissing-loop RNA reporter; test: apparent KD of K4 kissing-loop reporter; higher = weaker reporter binding; settings: Eterna round: R107; input ligand: theophylline 20 uM;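 also: bound reporter read as fluorescence of individual clusters on recovered sequencing chips by microscopy, with normalized cluster intensities fitted with a binding model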
Below, each entry is listed alongside its reported apparent KD of K4 kissing-loop reporter.
Provide only the numeric value, understood in µM.

The cases that follow already have their apparent KD of K4 kissing-loop reporter on record.
* GCCGUACGCAUGGAUACCAGAGAUGUUAGUCUCGAUGCCAGUGAUGUUGGCUAUAGCAUACUCCCUUGGCAGCCAUGCGUACGGC | 0.113
* AAUAAGGAGUGAUGUUCCAAGUGAUGUUAACGAGGACCGGUACGGCCGCCACUCGAUACGGCCGGAAAAUAAAAUAAAAUAAAAU [Same State - Tryptophan A (Freestyle 1)] | 0.12

Consider now this further sequence.
Lookup: Notebook: pull reported apparent KD of K4 kissing-loop reporter for K4 kissing-loop RNA reporter, entry UGAUACCAGACGGCCGCCACUUCCGUAAGUCAAAGACUUGCCAAGGGAAUCGUCCAGUGAUGUUGGAGGACCGGGUCUGGUAUCU [FiskerMod 5 - Jieux - Exclusion - Tryptophan B]
Found: 0.511

----------
test system: MS2 coat protein; test: apparent KD of MS2 coat protein; higher = weaker reporter binding; details: Eterna round: R107; input ligand: tryptophan 2.4 mM
Below, each entry is listed alongside its reported apparent KD of MS2 coat protein.
Provide only the numeric value, understood in nM.

The cases that follow already have their apparent KD of MS2 coat protein on record.
- CGGUACAUGAGGAUCACCCAUGUGUCGGAUACCAGAGAGCCGGCUCUCCCUUGGCAGCUGGUGCGACAUGAGGAUCACCCAUGUG [Exclusion Theophylline A GF19]: 53.3
- GCUACAUGAGGAUCACCCAUGUCAGCUACACGAGGACCGGUACGGCCGCCACUCGGUAGCGCUCAUCCUCGUGUGUAAGUCAAGU [Xedier]: 23.5
- AACAUGUGGAUCACCCAUGUAUGUUCUGAAGGAGCGCCACAUGAGGCAGGUAGGUCGCAGGUACAUGAGGAUCACCCAUGUGUCA [Exclusion Arginine A 4]: 158
- AGUCUUGAACGAAGGAGCGACGUACAUGAGGAUCACCCAUGUGGGAGCGAAAGCUCCUAACGUCAGGUAGGUCGCGUUCGAGACA [Omei Arginine B SS A v1]: 18.6
- GUCUUGGAAUCGGCCGCCACUACAUGAGGAUCACCCAUGUGGACAAAUAGGGUUUUUAAGCUCGGUAGGACCGGGAUUCGGACAU [Mamaon]: 66

Consider now this further sequence.
Lookup: Notebook: pull reported apparent KD of MS2 coat protein for MS2 coat protein, entry CUCCCGUGGUCGGCCGCCACUGGAGGCCUUGCGCGACAUGAGGAUCACCCAUGUUGGCCCGGCGUCAGGACCGGGAUCGCGUGAG [#1 Same State - Tryptophan B Attempt #10 (HarryS)]
Found: 10.1

----------
tested on: MS2 coat protein; experiment: apparent KD of MS2 coat protein; higher = weaker reporter binding; conditions: Eterna round: R101; input ligand: none
PROPERTY: apparent KD of MS2 coat protein (nM)
Provide only the numeric value, understood in nM.

The cases that follow already have their apparent KD of MS2 coat protein on record.
* AAAUGAUAUCAGAAGGGCUCCAGCAAAGCUGGAGCAGGAUAUGAGGAUCACCCAUAUCACCUGACGGUCGAAACGACCGUCAGG [#SharedSequence - IExNG1: 7-1] (puzzle (switch architecture): Inverted Exclusion NG 1) | 15.5
* CGCUAUGAUGGUUGUAAUAGAGCAUAGGAUAUGCUUGUACAUGAGGAUCACCCAUGUUAUAUUUUGCAGAAGGGUGCAUUUGCG [JR #DistanceFar #Hairpin #NP SLSSNG3 Sub073] (puzzle (switch architecture): Small Loop Same State NG 3) | 59.9
* GGGUACAUCGGAGGAUAUCAUGUAAAUACAUGAGGAUCACCCAUGUCGAUGGAGACAUAGGAGAUUGAGAAGGCCGAUGUACCG (puzzle (switch architecture): Same State NG 2) | 74

Lookup: Report apparent KD of MS2 coat protein for GGAGGAGGAUAAGGAUAUAACAUGAGGAUCACCCAUGUGGAGGAGGAGGAGGAGGAGGAGGAGGGUUAGAAGGUAUGGAGGAGG [First attempt] (puzzle (switch architecture): Exclusion NG 2) please.
Found: 16.2
